Protein target, amino acids: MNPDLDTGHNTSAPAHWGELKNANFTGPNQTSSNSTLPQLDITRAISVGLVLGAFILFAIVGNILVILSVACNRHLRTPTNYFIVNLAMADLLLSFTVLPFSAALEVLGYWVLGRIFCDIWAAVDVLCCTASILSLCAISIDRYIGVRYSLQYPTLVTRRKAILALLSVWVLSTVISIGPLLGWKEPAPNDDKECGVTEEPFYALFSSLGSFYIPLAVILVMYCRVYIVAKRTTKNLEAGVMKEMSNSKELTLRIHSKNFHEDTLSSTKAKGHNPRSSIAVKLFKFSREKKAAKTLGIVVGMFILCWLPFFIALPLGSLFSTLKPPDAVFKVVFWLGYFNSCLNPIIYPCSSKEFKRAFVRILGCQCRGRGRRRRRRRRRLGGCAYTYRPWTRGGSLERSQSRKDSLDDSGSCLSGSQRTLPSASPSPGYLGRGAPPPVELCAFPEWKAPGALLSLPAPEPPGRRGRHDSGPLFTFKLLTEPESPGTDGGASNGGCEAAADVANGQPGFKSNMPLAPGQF
Could you please report measured Ki for the items listed next?

Fill blank: measured Ki of the compound c1ccc2c(c1)CCC1(CCN(CCc3cccc4ccccc34)CC1)O2 is ____.
55 nM

Fill blank: measured Ki of the compound O=C1CC2(CCN(CCc3cccc4ccccc34)CC2)Oc2ccc(NS(=O)(=O)Cc3ccccc3)cc21 is ____.
24 nM

Fill blank: measured Ki of the compound CS(=O)(=O)Nc1ccc2c(c1)C(=O)CC1(CCN(CCc3ccccn3)CC1)O2 is ____.
> 2000 nM

Fill blank: measured Ki of the compound COc1ccccc1CCN1CCC2(CC1)CC(=O)c1ccc(NS(C)(=O)=O)cc1O2 is ____.
175 nM

Fill blank: measured Ki of the compound O=C1c2ccccc2CC12CCN(CCc1cccc3ccccc13)CC2 is ____.
49 nM

Fill blank: measured Ki of the compound O=C1CC2(CCN(CCc3cccc4ccccc34)CC2)Oc2ccccc21 is ____.
48 nM

Fill blank: measured Ki of the compound CS(=O)(=O)Nc1ccc2c(c1)OC1(CCN(CCc3ccccn3)CC1)CC2=O is ____.
> 2000 nM

Fill blank: measured Ki of the compound Cc1[nH]c2ccccc2c1CCN1CCC2(CC1)CC(=O)c1ccc(NS(C)(=O)=O)cc1O2 is ____.
221 nM

Cited source for all entries: ChEMBL document CHEMBL1132031
